Biological target: T1, human MSR1 extracellular domain expressed with a N-terminal nonahistidine tag (His9-hMSR1); R&D Systems, Cat … (human, UniProt P21757 77-451)
T1 construct: extracellular domain; also called His-hMSR1; 9xHis-hMSR1; not shown: N-terminal nonahistidine tag
T1 sequence (looked up): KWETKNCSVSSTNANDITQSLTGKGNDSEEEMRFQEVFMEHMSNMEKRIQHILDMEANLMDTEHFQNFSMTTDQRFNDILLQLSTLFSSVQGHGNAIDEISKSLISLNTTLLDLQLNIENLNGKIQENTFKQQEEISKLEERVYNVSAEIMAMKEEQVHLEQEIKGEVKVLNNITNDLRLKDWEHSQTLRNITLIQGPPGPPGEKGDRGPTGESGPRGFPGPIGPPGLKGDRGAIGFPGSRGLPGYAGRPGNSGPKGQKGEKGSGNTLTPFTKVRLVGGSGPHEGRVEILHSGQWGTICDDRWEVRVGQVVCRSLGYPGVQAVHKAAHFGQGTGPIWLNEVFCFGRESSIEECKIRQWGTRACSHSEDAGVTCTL
Experiment: SPR Biacore, 37 C, antibody captured
The binders listed here are annotated with their kon.
Reply with the number and its unit after it.

# binder, value
data = [
    ("H1H27731P-N297Q (antibody, V domains shown, Human IgG1 Fc with N297Q point mutation) VH: QLQLQESGPGLVKPSETLSLTCTVSGGSISRISYYWGWIRQPPGKGLEWIGSIYDSGSTYYNPSLKSRVTISIDTSKNQFSLKLSSVTAADTAVYYCVRYSSSSAFAFDYWGQGTLVTVSS VL: DIQMTQSPSSVSASVGDRVTITCRASQGISSWLAWYQQKPGKAPKLLIYAASSLQSGVPSRFSGSGSGTDFTLTISSLQPEDFATYYCQQANSFPFTFGPGTKVDIKR", "286000 M⁻¹ s⁻¹"),
    ("H1H27739P-N297Q (antibody, V domains shown, Human IgG1 Fc with N297Q point mutation) VH: EVQLVESGGGLVQPGGSLRLSCTASGFTFSSYAMSWVRQAPGKGLEWVSAISGTGSSTYFTDSVKGRFAISRDNSKNTLYLQMNSLRAEDTAVYYCAKDGEWLSTVTLFDYWGQGTLVTVSS VL: EIVMTQSPATLSVSPGERATLSCRASQSVSSNLAWYQQKPGQAPRLLIYGASTRATGIPARFSGSGSGTDFTLTISSLQSEDFALYYCQQYFIWPPHPTFGPGTKVDIKR", "776000 M⁻¹ s⁻¹"),
]

Now look at this entry.
Name the recorded kon of the binder listed here: H1H27734P-N297Q (antibody, V domains shown, Human IgG1 Fc with N297Q point mutation) VH: EVQLVESRGGLVQPGGSLRLSCAASGFTFSSYAMSWVRQAPGKGLEWVSAISGSGGSTFYADSVKGRFTISRDNSKNTVYLQMNSLRAEDTAVYYCAKALVLRFLEWLGDYWGQGTLVTVSS VL: DIQMTQSPSTLSASVGDRVTITCRASQSISSWLAWFQQKPGKAPKLLIYKASSLESGVPSRFSGSGSGTEFTLTISSLQPDDFATYYCQQYKSYWTFGQGTKVEIKR
1.09e+06 M⁻¹ s⁻¹
